target: Schistosoma mansoni thioredoxin glutathione reductase (TGR); assay: qHTS Assay for the Inhibitors of Schistosoma Mansoni Peroxiredoxins; conditions: purified TGR, DTNB reduction, TNB absorbance 405 nm; series mostly up to 114 µM; note: nearly all actives have a fitted effect of over 60% in size
About 11,000 (3.1%) of roughly 360,000 compounds were called active. About 4% were inconclusive and are not listed. Calls come from the whole dose curve; as a rule, active = well fitted inhibition curve with a large enough effect; inconclusive = small, poorly fitted or top-dose-only effect; inactive = no such curve, though single readings can be large or run the other way. This is one part of a sample in which actives are shown more often than they occur.
Possible outcomes: Y (active), N (inactive)

[[record]]
molecule = "C[C@H]1CCC(=O)N([C@H](CSc2ccccc2)Cc2ccccc2)CC1"
qualitative_label = "N"

[[record]]
molecule = "COc1ccccc1C1=Nc2cccc3cccc(c23)N1"
qualitative_label = "N"

[[record]]
molecule = "Oc1ccc(N=Cc2c(O)ccc3ccccc23)cc1"
qualitative_label = "Y"

[[record]]
molecule = "Cc1cc(N=Nc2ccc3ccccc3c2)ccc1O"
qualitative_label = "N"


====

Target: Schistosoma mansoni thioredoxin glutathione reductase (TGR) (UniProt Q962Y6)
Assay: qHTS Assay for the Inhibitors of Schistosoma Mansoni Peroxiredoxins; note: nearly all actives have a fitted effect of over 60% in size
Conditions: purified TGR, DTNB reduction, TNB absorbance 405 nm; series mostly up to 114 µM
From the text: Schistosomiasis is a major neglected tropical disease that currently affects over 200 million. It is caused by different species of flatworms, such as Schistosoma mansoni. […] In addition, the fluorescence assay was also subject to fluorescence interference from compound library members. […] The assay followed the reduction of 5, 5'-dithiobis (2-nitrobenzoic acid) (DTNB) (Ellman's reagent) by NADPH and measured the increase in absorbance at 412 nm of the reaction product, TNB. […]
The whole screen tested about 360,000 compounds, of which about 11,000 (3.1%) were called active. Inconclusive results (about 4%) are left out. The call rests on the fitted dose curve; in most records, active means well fitted inhibition curve with a large enough effect; inconclusive means small, poorly fitted or top-dose-only effect; inactive means no such curve, though single readings can be large or run the other way. The sample holds actives, similar compounds and a random draw of the others, so the mix is not that of the screen.
Possible outcomes: active, inactive

[[record]]
compound = "O=S(=O)(NCC(c1ccco1)N1CCOCC1)c1cc(F)ccc1F (stereo not given)"
tested_target = "Schistosoma mansoni thioredoxin glutathione reductase (TGR) (UniProt Q962Y6)"
qualitative_label = "inactive"

[[record]]
compound = "C=CCSc1nnc(N2C(=O)C(O)=C(C(=O)c3ccco3)C2c2ccc(F)cc2)s1 (stereo not given)"
tested_target = "Schistosoma mansoni thioredoxin glutathione reductase (TGR) (UniProt Q962Y6)"
qualitative_label = "active"

[[record]]
compound = "Cc1ccc2sc(N(CCN(C)C)C(=O)/C=C/c3cccs3)nc2c1C"
tested_target = "Schistosoma mansoni thioredoxin glutathione reductase (TGR) (UniProt Q962Y6)"
qualitative_label = "inactive"

[[record]]
compound = "COC(=O)c1cnc(N2CCN(c3ccccc3OC)CC2)c2ccccc12"
tested_target = "Schistosoma mansoni thioredoxin glutathione reductase (TGR) (UniProt Q962Y6)"
qualitative_label = "inactive"

[[record]]
compound = "COc1ccccc1CNC(=O)CCCN1C(=O)NC2(CCCC2)C1=O"
tested_target = "Schistosoma mansoni thioredoxin glutathione reductase (TGR) (UniProt Q962Y6)"
qualitative_label = "inactive"

[[record]]
compound = "O=C(Nc1ccccc1-c1ccccc1)c1cccs1"
tested_target = "Schistosoma mansoni thioredoxin glutathione reductase (TGR) (UniProt Q962Y6)"
qualitative_label = "inactive"

[[record]]
compound = "CCN(CC)C(CNC(=O)CSc1nnnn1-c1cccc(F)c1)c1ccco1 (stereo not given)"
tested_target = "Schistosoma mansoni thioredoxin glutathione reductase (TGR) (UniProt Q962Y6)"
qualitative_label = "inactive"

[[record]]
compound = "CCOC(=O)c1ccc(COC(=O)c2cc(=O)[nH]c3ccccc23)o1"
tested_target = "Schistosoma mansoni thioredoxin glutathione reductase (TGR) (UniProt Q962Y6)"
qualitative_label = "inactive"

[[record]]
compound = "O=C(CSc1nnnn1-c1ccccc1)NCc1ccco1"
tested_target = "Schistosoma mansoni thioredoxin glutathione reductase (TGR) (UniProt Q962Y6)"
qualitative_label = "active"

[[record]]
compound = "CCOC(=O)C1CCCN(C(=O)c2cncc(Br)c2)C1 (stereo not given)"
tested_target = "Schistosoma mansoni thioredoxin glutathione reductase (TGR) (UniProt Q962Y6)"
qualitative_label = "inactive"

[[record]]
compound = "Cc1cc(C)c2c(n1)nn1c(-n3ccnc3)cc(C)nc21"
tested_target = "Schistosoma mansoni thioredoxin glutathione reductase (TGR) (UniProt Q962Y6)"
qualitative_label = "active"

[[record]]
compound = "CN1c2ccc(Cl)cc2-c2nc(SCC(=O)Nc3cc(F)ccc3F)ncc2S1(=O)=O"
tested_target = "Schistosoma mansoni thioredoxin glutathione reductase (TGR) (UniProt Q962Y6)"
qualitative_label = "inactive"

[[record]]
compound = "Cn1c(-c2ccc(F)cc2)cnc1SCC(=O)NNC(=O)Cc1ccccc1"
tested_target = "Schistosoma mansoni thioredoxin glutathione reductase (TGR) (UniProt Q962Y6)"
qualitative_label = "inactive"

[[record]]
compound = "CC(C)(O)C(=O)NN(C(=O)c1ccccc1)c1cccc(Br)c1"
tested_target = "Schistosoma mansoni thioredoxin glutathione reductase (TGR) (UniProt Q962Y6)"
qualitative_label = "inactive"

[[record]]
compound = "COC(=O)c1nc(NC(=O)c2ccc(F)cc2)n[nH]1"
tested_target = "Schistosoma mansoni thioredoxin glutathione reductase (TGR) (UniProt Q962Y6)"
qualitative_label = "active"

[[record]]
compound = "O=C(C1COc2ccccc2O1)N(Cc1cccnc1)c1nc2c(F)cc(F)cc2s1 (stereo not given)"
tested_target = "Schistosoma mansoni thioredoxin glutathione reductase (TGR) (UniProt Q962Y6)"
qualitative_label = "inactive"

[[record]]
compound = "Cc1ccc(CCNC(=O)c2ccc3c(c2)nc2n3CCC(C)C2)cc1 (stereo not given)"
tested_target = "Schistosoma mansoni thioredoxin glutathione reductase (TGR) (UniProt Q962Y6)"
qualitative_label = "inactive"

[[record]]
compound = "COC(=O)c1nc(NC(=O)c2ccc(Cl)cc2)n[nH]1"
tested_target = "Schistosoma mansoni thioredoxin glutathione reductase (TGR) (UniProt Q962Y6)"
qualitative_label = "active"

[[record]]
compound = "O=C(CCN1CCCCC1)NCC(=O)Nc1ccc(Br)cc1C(=O)c1ccccc1"
tested_target = "Schistosoma mansoni thioredoxin glutathione reductase (TGR) (UniProt Q962Y6)"
qualitative_label = "inactive"

[[record]]
compound = "O=C(CSc1nnc(-c2c[nH]c3ccccc23)n1-c1ccc(F)cc1)NCc1ccco1"
tested_target = "Schistosoma mansoni thioredoxin glutathione reductase (TGR) (UniProt Q962Y6)"
qualitative_label = "inactive"

[[record]]
compound = "Cc1nc2nc(SCC(=O)NCc3ccco3)nn2c(C)c1Cc1ccccc1"
tested_target = "Schistosoma mansoni thioredoxin glutathione reductase (TGR) (UniProt Q962Y6)"
qualitative_label = "active"

[[record]]
compound = "Cc1cc(C)c(OCC(=O)N/N=C/c2ccco2)c(C)c1"
tested_target = "Schistosoma mansoni thioredoxin glutathione reductase (TGR) (UniProt Q962Y6)"
qualitative_label = "inactive"

[[record]]
compound = "Cn1c(-c2ccc(F)cc2)cnc1SCC(=O)NCc1ccco1"
tested_target = "Schistosoma mansoni thioredoxin glutathione reductase (TGR) (UniProt Q962Y6)"
qualitative_label = "active"

[[record]]
compound = "CCOC(=O)c1ccccc1NC(=O)CCc1c(C)nc2c(c1C)c(=O)n(C)c(=O)n2C"
tested_target = "Schistosoma mansoni thioredoxin glutathione reductase (TGR) (UniProt Q962Y6)"
qualitative_label = "inactive"

[[record]]
compound = "COc1ccc(S(=O)(=O)NCC(c2ccc(N(C)C)cc2)N2CCCC2)cc1 (stereo not given)"
tested_target = "Schistosoma mansoni thioredoxin glutathione reductase (TGR) (UniProt Q962Y6)"
qualitative_label = "inactive"

[[record]]
compound = "O=C(CSc1nnc2scc(-c3ccc(F)cc3)n12)NCc1ccco1"
tested_target = "Schistosoma mansoni thioredoxin glutathione reductase (TGR) (UniProt Q962Y6)"
qualitative_label = "inactive"

[[record]]
compound = "COc1cccc2sc(N(CCCN(C)C)C(=O)CCS(=O)(=O)c3ccccc3)nc12"
tested_target = "Schistosoma mansoni thioredoxin glutathione reductase (TGR) (UniProt Q962Y6)"
qualitative_label = "active"

[[record]]
compound = "CCOC(=O)C1CCCN(C(=O)c2ccc(CS(=O)(=O)c3ccc(Br)cc3)o2)C1 (stereo not given)"
tested_target = "Schistosoma mansoni thioredoxin glutathione reductase (TGR) (UniProt Q962Y6)"
qualitative_label = "active"

[[record]]
compound = "CC[C@]1(c2ccccc2OC)C(=O)N(C(=O)OC)N1C(=O)OC"
tested_target = "Schistosoma mansoni thioredoxin glutathione reductase (TGR) (UniProt Q962Y6)"
qualitative_label = "active"

[[record]]
compound = "CCOC(=O)c1cc2c(=O)[nH]c(C(Cl)(Cl)Cl)nc2o1"
tested_target = "Schistosoma mansoni thioredoxin glutathione reductase (TGR) (UniProt Q962Y6)"
qualitative_label = "active"

[[record]]
compound = "Cc1cc(C)c2c(NC(=O)C3CC3)nn(C)c2n1"
tested_target = "Schistosoma mansoni thioredoxin glutathione reductase (TGR) (UniProt Q962Y6)"
qualitative_label = "inactive"

[[record]]
compound = "Cc1cccc(CCNC(=O)c2ccc3c(c2)nc2n3CCC(C)C2)c1 (stereo not given)"
tested_target = "Schistosoma mansoni thioredoxin glutathione reductase (TGR) (UniProt Q962Y6)"
qualitative_label = "inactive"

[[record]]
compound = "Cc1cccc(N(Cc2ccccc2)C(=O)c2ccccc2F)c1"
tested_target = "Schistosoma mansoni thioredoxin glutathione reductase (TGR) (UniProt Q962Y6)"
qualitative_label = "inactive"

[[record]]
compound = "CCOC(=O)C1CCCN(C(=O)c2cccc(S(=O)(=O)N3CCOCC3)c2)C1 (stereo not given)"
tested_target = "Schistosoma mansoni thioredoxin glutathione reductase (TGR) (UniProt Q962Y6)"
qualitative_label = "inactive"

[[record]]
compound = "COC(=O)c1ccc(COc2ccc(C#N)cc2)o1"
tested_target = "Schistosoma mansoni thioredoxin glutathione reductase (TGR) (UniProt Q962Y6)"
qualitative_label = "inactive"

[[record]]
compound = "CCOc1ccccc1-n1c(SCC(=O)NCc2ccco2)nnc1-c1ccncc1"
tested_target = "Schistosoma mansoni thioredoxin glutathione reductase (TGR) (UniProt Q962Y6)"
qualitative_label = "active"

[[record]]
compound = "CN(C(=O)c1ccc2c(c1)N(Cc1cccc(Cl)c1)C(=O)c1ccccc1S2=O)C1CCCCC1 (stereo not given)"
tested_target = "Schistosoma mansoni thioredoxin glutathione reductase (TGR) (UniProt Q962Y6)"
qualitative_label = "inactive"

[[record]]
compound = "COc1ccc(C(=O)Nc2ccc(F)cc2F)cc1"
tested_target = "Schistosoma mansoni thioredoxin glutathione reductase (TGR) (UniProt Q962Y6)"
qualitative_label = "inactive"

[[record]]
compound = "CN(C)c1ccc(C(CNS(=O)(=O)c2cc(F)ccc2F)N2CCOCC2)cc1 (stereo not given)"
tested_target = "Schistosoma mansoni thioredoxin glutathione reductase (TGR) (UniProt Q962Y6)"
qualitative_label = "active"

[[record]]
compound = "N#CC1=C(N)Oc2c(sc3ccccc23)C1c1ccco1 (stereo not given)"
tested_target = "Schistosoma mansoni thioredoxin glutathione reductase (TGR) (UniProt Q962Y6)"
qualitative_label = "active"

